Source: PubChem BioAssay AID431

In this section we review reported cytotoxicity values for a set of compounds.
PROCEDURE_DETAILS: viability loss of HPDE-C7K cells – cell-based, fluorescence, HTS, primary screen (AID 431);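 further: 0% = DMSO solvent wells and 100% = doxorubicin-treated wells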
TEST_SETTINGS: HPDE-C7K KRASV12 cells, Alamar Blue viability, 48 h; at 10 µM; active compounds read high
Screen size: about 63,000 compounds; about 1,100 (1.7%) were called active. The list comes from a sample in which actives are over-represented; it also holds close analogues and randomly drawn compounds. Entries with a potency or affinity are not part of this list.
MEASURED_PROPERTY: cytotoxicity (%)

INSERT INTO results (compound, unit_info, meas_value) VALUES
  ('NC(=O)C1CCCN(Cc2ccc(Cl)cc2)C1 (stereo not given)', '%', -10.3),
  ('c1ccc(-n2nnnc2Sc2n[nH]c(-c3ccncc3)n2)cc1', '%', -8.6),
  ('CCn1c2ccccc2c2cc(Nc3cc(C)nc4ncnn34)ccc21', '%', 74.4),
  ('CC(NC(=O)Nc1nccs1)(C(F)(F)F)C(F)(F)F', '%', -3.9),
  ('CCC(c1nnnn1Cc1ccccc1)N1CCN(C(=O)c2ccco2)CC1 (stereo not given)', '%', -1.7),
  ('Cc1ccc(CNC(=O)CCS(=O)(=O)c2cccc3nonc23)cc1', '%', -9.3),
  ('CC1CCN(c2nc3c(c(=O)[nH]c(=O)n3C)n2Cc2ccccc2Cl)CC1', '%', 8.5),
  ('O=C(NCC(F)(F)F)Nc1nnc(C(F)(F)F)s1', '%', 12.5),
  ('CCOC(=O)N1CCN(C(=O)c2ccc3c(c2)NC(=O)C(N2CCOCC2)S3)CC1 (stereo not given)', '%', -7.4),
  ('Cc1cc(Nc2cccc(C)c2C)n2nc(C)nc2n1', '%', 9),
  ('COc1ccc(C(=O)Nn2c(SCC(=O)NCC3CCCO3)nc3ccccc3c2=O)cc1 (stereo not given)', '%', -11),
  ('Cc1c(C#N)c2ccccc2n1CC(=O)NCCc1c[nH]c2ccccc12', '%', -3.8),
  ('CCn1ncc(C2=NOC(C(=O)NCc3ccc(Cl)cc3)C2)c1C (stereo not given)', '%', 59.3),
  ('Cc1ccc(CNC(=O)CCCn2c(=O)[nH]c3ccccc3c2=O)cc1', '%', -8.5),
  ('CCCc1nc(SCC(=O)N2CCN(c3ccccc3)CC2)c2c(=O)n(C)c(=O)n(C)c2n1', '%', 0.7),
  ('CCOc1cccc(-c2nc3cc(C)ccc3o2)c1', '%', -4.3),
  ('O=C(Nc1ccc(N2CCN(c3ccc(O)cc3)CC2)cc1)Oc1ccccc1', '%', 65.7),
  ('CC(C)Oc1ccc(NC(=O)Oc2ccccc2)cc1', '%', 3.4),
  ('CCN1CCN(Cc2cc(=O)oc3cc(C)cc(C)c23)CC1', '%', 7.2),
  ('CCOC(=O)N1CCN(c2nc(C)c3c(n2)CC(C)CC3=O)CC1 (stereo not given)', '%', -14.7),
  ('CCOc1ccc(-c2cc(C(=O)N3CCN(C)CC3)c3ccccc3n2)cc1', '%', -12.4),
  ('Cc1ccc(-c2cc(C(=O)N3CCN(c4ncccn4)CC3)c3ccccc3n2)cc1', '%', 58.8),
  ('CCCCCCc1cc2cc(C(=O)NC)c(=N)oc2cc1O', '%', 30.5),
  ('CCCC(=O)NCCCCNC(=O)CCC', '%', -12.2),
  ('CCOC(=O)c1cccc(C(=O)OCC)n1', '%', -5.9),
  ('O=S(=O)(c1ccc2nc(Cc3ccccc3)[nH]c2c1)N1CCOCC1', '%', 2.7),
  ('CCc1cccc(Nc2cc(C)nc3ncnn23)c1', '%', -4.4),
  ('CCOc1cccc2cc(-c3nnc(-c4ccccc4)o3)c(=O)oc12', '%', -3.1),
  ('COc1cccc(-c2cc(C(=O)N3CCN(c4ncccn4)CC3)c3ccccc3n2)c1', '%', 15.2),
  ('CC(=O)Nc1ccc(NC(=O)Oc2ccccc2)cc1', '%', -2.5),
  ('CC1(C)CC(=O)C(C=Nc2cccnc2)=C(O)C1', '%', 7.1),
  ('COc1ccc(-c2onc(C)c2-c2ccccc2)c(O)c1', '%', 15.1),
  ('Cc1nn(Cc2ccccc2Cl)c(C)c1NC(=O)C1C2CCC(O2)C1C(=O)O (stereo not given)', '%', 0.4),
  ('COc1ccc(CN2C(=O)NC3(CCCCCC3)C2=O)cc1F', '%', -2.8),
  ('COc1ccc(-c2noc(CN(C)S(=O)(=O)c3ccc(Cl)cc3)n2)cc1OC', '%', 27.5);

----------
PROCEDURE_DETAILS: viability loss of HPDE-C7K cells – cell-based, fluorescence, HTS, primary screen (AID 431);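 further: 0% = DMSO solvent wells and 100% = doxorubicin-treated wells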
TEST_SETTINGS: HPDE-C7K KRASV12 cells, Alamar Blue viability, 48 h; at 10 µM
About 1,100 (1.7%) of roughly 63,000 compounds were called active.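 Rule for the calls: active = compounds whose percent cytotoxicity in the single-dose primary screen, scaled between solvent and toxic-drug controls, exceeds 50; inactive = the rest.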 Shown is part of a subset that was picked to be rich in actives. Results with a measured potency or affinity are listed apart.
Outcomes: 1 (active), 0 (inactive)

INSERT INTO assay_data (compound, discrete_label) VALUES
  ('O=C1CC(c2ccco2)CC(O)=C1C=NCCN1CCNCC1 (stereo unspecified)', 0),
  ('CCOc1ccc(N2CCCCn3c2nc2c3c(=O)[nH]c(=O)n2C)cc1', 0),
  ('Cn1c(NCC(O)c2ccccc2)nc2c1c(=O)n(Cc1ccc(Cl)cc1)c(=O)n2C (stereo unspecified)', 1),
  ('c1ccc(CSc2nnc(-c3cccs3)n2Cc2ccco2)cc1', 0),
  ('Cn1c(N2CCCC2)nc2c1c(=O)n(Cc1ccc(Cl)cc1)c(=O)n2C', 0),
  ('CCOc1ccc(-c2nc(N)nc(C)c2-c2ccc(OC)c(OC)c2)c(O)c1', 0),
  ('C=CCN1C(=O)c2ccccc2Sc2ccc(C(=O)N3CCN(C)CC3)cc21', 0),
  ('Cn1c(NCC(O)c2ccccc2)nc2c1c(=O)n(Cc1ccc(Cl)c(Cl)c1)c(=O)n2C (stereo unspecified)', 1),
  ('Cn1c(N2CCN(c3ccccn3)CC2)nc2c1c(=O)n(Cc1ccc(Cl)cc1)c(=O)n2C', 1),
  ('COc1ccc(-n2ncc3c(N4CCN(c5cc(C)ccc5C)CC4)ncnc32)cc1', 0),
  ('O=C(c1cc(Cl)ccc1Cl)N1CCN(c2ccccn2)CC1', 0);

----------
PROCEDURE_DETAILS: viability loss of HPDE-C7K cells – cell-based, fluorescence, HTS, primary screen (AID 431);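 further: 0% = DMSO solvent wells and 100% = doxorubicin-treated wells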
TEST_SETTINGS: HPDE-C7K KRASV12 cells, Alamar Blue viability, 48 h; at 10 µM; active compounds read high
About 1,100 (1.7%) of roughly 63,000 compounds were called active. The sample holds actives, similar compounds and a random draw of the others, so the mix is not that of the screen. Results with a measured potency or affinity are listed apart.
MEASURED_PROPERTY: cytotoxicity (%)

INSERT INTO assay_data (compound, unit_info, meas_value) VALUES
  ('COc1ccc(CCNC(=O)Cn2c(=O)n(Cc3ccco3)c(=O)c3ccc(Cl)cc32)cc1OC', '%', 4.2),
  ('O=c1oc(-c2cccs2)nc2sc3c(c12)CCC3', '%', 33),
  ('O=c1oc(-c2cccs2)nc2sc3c(c12)CCCCC3', '%', 43.5),
  ('COc1cc2c(=O)n(Cc3ccco3)c(=O)n(CC(=O)c3ccc(Br)cc3)c2cc1OC', '%', 80.3),
  ('COc1cc2c(=O)n(Cc3ccco3)c(=O)n(CC(=O)c3cccc(Br)c3)c2cc1OC', '%', 50),
  ('CC1CCCCN1S(=O)(=O)c1ccc(C(=O)Nc2nnc(-c3ccccc3Cl)o2)cc1 (centres undefined)', '%', 56.7),
  ('CCCCn1c2c(c3ccccc31)CCc1nonc1-2', '%', 14.8),
  ('CSc1nnc([C@H](C)NC(=O)OC(C)(C)C)o1', '%', -22.1),
  ('Cc1cc(C)nc(SC(C)C(=O)Nc2ccc(S(N)(=O)=O)cc2)n1 (centres undefined)', '%', -10.7),
  ('O=C(Nc1nnc(-c2ccccc2Cl)o1)c1ccc(S(=O)(=O)N2CCCCCC2)cc1', '%', 43.8),
  ('CC1CCc2nc(NC(=O)CN3CCOCC3)sc2C1 (centres undefined)', '%', -3.7),
  ('CCC1CCCCN1c1nc(-c2ccncc2)nc2ccccc12 (centres undefined)', '%', -15.6),
  ('Cc1ccc2nsnc2c1S(=O)(=O)N1CCN(C(=O)C2CCCO2)CC1 (centres undefined)', '%', -15.6),
  ('CCOC(=O)c1ccccc1NC(=O)CN(c1ccccc1OC)S(C)(=O)=O', '%', -1.1);

----------
PROCEDURE_DETAILS: viability loss of HPDE-C7K cells – cell-based, fluorescence, HTS, primary screen (AID 431);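 further: 0% = DMSO solvent wells and 100% = doxorubicin-treated wells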
TEST_SETTINGS: HPDE-C7K KRASV12 cells, Alamar Blue viability, 48 h; at 10 µM; active compounds read high
Screen size: about 63,000 compounds; about 1,100 (1.7%) were called active. This excerpt belongs to a sample that is enriched for actives. Potency and affinity values are given separately.
MEASURED_PROPERTY: cytotoxicity (%)

INSERT INTO results (compound, meas_value) VALUES
  ('O=C(c1c(Cl)nc2sccn12)N(C(=O)c1c(Cl)nc2sccn12)c1ccc(Cl)cn1', 16),
  ('CN(C)c1ccc(-c2nn3c(-c4ccncc4)nnc3s2)cc1', -7.6),
  ('CCOC(=O)C(NC(=O)c1ccccc1)=C1CCCCC1', -19.2),
  ('CC1(C)Cc2c(C#N)c(N3CCN(C(=O)c4ccco4)CC3)nc(-c3ccco3)c2CS1', 44.2),
  ('O=C(Cn1c(=O)oc2ccccc21)N1CCCCC1', -21),
  ('COc1ccc2c(c1)c(=O)c(Br)c(C)n2Cc1ccccc1', 0.5),
  ('CCOc1ccc(-c2nn3c(-c4ccc(F)cc4)nnc3s2)cc1', 9.9),
  ('S=c1[nH]c2ncccc2o1', 21.2),
  ('O=C(Cc1cccs1)Nc1nc2ccccc2s1', 2.2),
  ('CC(=O)Oc1ccc(N2C(=O)CCC2=O)cc1', -3.8),
  ('CC(C)(O)C1=NOC(c2ccccc2)C1 (stereo not drawn)', 6.7),
  ('CC(C)C(=O)NC(c1ccco1)c1ccc2cccnc2c1O (stereo not drawn)', -36.3),
  ('c1cncc(-c2nn3c(-c4ccncc4)nnc3s2)c1', -1),
  ('COc1ccc(OC)c(C2C(C#N)=C(N)Oc3cc(N)ccc32)c1 (stereo not drawn)', 9.4),
  ('CCCc1nc(NCc2ccco2)c(C#N)c2c1COC(C)(C)C2', 1.1),
  ('COc1cc(C2CC(=O)C=C(O)C2)cc(OC)c1OC (stereo not drawn)', -10),
  ('Cc1ccc(OCc2nc(-c3ccccn3)no2)c(Br)c1', 26.3),
  ('N#CC1=C(N)Oc2cc(O)ccc2C1c1ccccc1 (stereo not drawn)', 1.7),
  ('CS(=O)(=O)c1ccc2nc(NC(=O)Cc3ccccc3)sc2c1', 2.6),
  ('CC(=O)NC(c1ccco1)c1ccc2cccnc2c1O (stereo not drawn)', 23.7),
  ('O=C(CSc1nc(Nc2ccccc2)nc(N2CCOCC2)n1)Nc1ccc2c(c1)OCCO2', 11.5),
  ('CCN(CC)c1ccc(-c2nn3c(-c4cccnc4)nnc3s2)cc1', 56.4),
  ('CCOC(=O)c1nnn(-c2nonc2N)c1CSc1ccccn1', -3.2);
